Ref: patent US6716987B1

- Tested on: cAMP-specific phosphodiesterase (PDE IV)
- Protocol text: Inhibition of the PDE IV enzyme derived from a dog trachea
- Assay type: biochemical
- Experimental setup: test compound 10^−6 M; PDE IV from dog tracheal smooth muscle; substrate cAMP 1 μM
Value type: Enzyme Inhibitory Activity (%, 10^−6 M) (%)
Give bare numbers, in %.

Record excerpt, results attached:
COc1ccc(C(Sc2ccncc2)c2ccccc2)c2c1OCC2C (racemic) [Compound 60A] : 15
CCC1(CC)Cc2c(C(=O)Cc3ccncc3)ccc(OC)c2O1.Cl : 85
COc1ccc(C=Cc2ccncc2)c2c1OC1(CCCC1)CC2.Cl : 71

In the following, a different compound is considered.
Ask: Any idea what its Enzyme Inhibitory Activity (%, 10^−6 M) is? The compound is COc1ccc(C(=O)Nc2c(Cl)cncc2Cl)c2c1OCC2CC(=O)Nc1ncccn1 (racemic)
Result: 80

----------
I'd be grateful if you could share measured Enzyme Inhibitory Activity (%, 10^−6 M) for these entries.
- Test system: cAMP-specific phosphodiesterase (PDE IV)
- Protocol text: Inhibition of the PDE IV enzyme derived from a dog trachea
- Assay type: biochemical
- Experimental setup: test compound 10^−6 M; PDE IV from dog tracheal smooth muscle; substrate cAMP 1 μM
Numbers only, in %.

Record excerpt, results attached:
COc1ccc(C(=O)Cc2ccncc2)c2cc(-c3ccccc3)oc12.Cl : 69
COc1ccc(CCc2ccncc2)c2c1OC1(CCCCC1)C2.Cl : 86
CCC1COc2c(OC)ccc(C(=O)Nc3c(Cl)cncc3Cl)c21 (racemic) : 75

Quick request: Enzyme Inhibitory Activity (%, 10^−6 M) for each listed item, please.
1. COC(=O)c1cccc(NC(=O)/C=C/c2ccc(OC)c3c2CC2(CCCC2)O3)c1
2. COc1ccc(C(Cc2ccncc2)c2ccccc2)c2c1OC1(CCCC1)O2.Cl (stereo not drawn)
3. COc1ccc(C(=O)Nc2c(Cl)cncc2Cl)c2c1OCC2CC(=O)NCc1ccncc1 (racemic)
4. COc1ccc(CCc2ccncc2)c2c1OC1(CCCC1)C2.Cl
5. COc1ccc(C(Cc2c(Cl)cncc2Cl)OC)c2c1OC(C)(C)C2 (racemic)
6. COc1ccc(C(=O)Nc2c(Cl)cncc2Cl)c2ccoc12
7. COc1ccc(C(=O)Cc2ccncc2)c2c(-c3ccccc3)coc12.Cl

Result:
1. 23
2. 61
3. 79
4. 84
5. 63
6. 71
7. 80

Quick request: Enzyme Inhibitory Activity (%, 10^−6 M) for each listed item, please.
1. COc1ccc(C(=O)Nc2c(Cl)cncc2Cl)c2c1OCC2CC(=O)Nc1c(Cl)cncc1Cl (racemic)
2. COc1ccc(C(=O)Nc2ccccc2)c2c1OCC2CC(=O)O (racemic)

Result:
1. 81
2. 6

Quick request: Enzyme Inhibitory Activity (%, 10^−6 M) for each listed item, please.
1. COc1ccc(C(=O)Nc2c(Cl)cncc2Cl)c2cc(-c3ccccn3)oc12
2. COc1ccc(C(=O)Nc2c(Cl)cncc2Cl)c2c1OCC2CC(=O)NCc1ccccc1 (racemic)

Result:
89
84

----------
- Test system: cAMP-specific phosphodiesterase (PDE IV)
- Protocol text: Inhibition of the PDE IV enzyme derived from a dog trachea
- Assay type: biochemical
- Experimental setup: test compound 10^−6 M; PDE IV from dog tracheal smooth muscle; substrate cAMP 1 μM
- Procedure: cAMP-specific phosphodiesterase (PDE IV) was purified from a dog tracheal smooth muscle according to the method of Torphy et al. [Molecular Pharmacol., 37, 206-214 (1990)]. The PDE activity was measured by the following two steps according to the method of Kincaid and Manganiello et al. [Method in Enzymology (J. D. Corbin and R. A. Jonson, Eds.), 199, 457-470 (1988)]. […]
I'd be grateful if you could share measured Enzyme Inhibitory Activity (%, 10^−6 M) for these entries.
One number for each entry, in %.

Record excerpt, results attached:
COc1ccc(C(=O)Nc2ccccc2)c2c1OCC2CC(=O)OCc1ccccc1 (racemic) : 75
COc1ccc(C=Cc2c(Cl)cncc2Cl)c2c1CC1(CCCC1)O2 : 51
COc1ccc(C(Sc2ccncc2)c2ccccc2)c2c1OC(C)(C)C2 (racemic) : 40

Quick request: Enzyme Inhibitory Activity (%, 10^−6 M) for each listed item, please.
1. COc1ccc(C(=O)Nc2c(Cl)cncc2Cl)c2c1OCC2CC(=O)NCc1ccccc1Cl (racemic)
2. COc1ccc(C(=Cc2ccncc2)c2ccccc2)c2c1OC(C)(C)C2
3. COc1ccc(C#Cc2ccncc2)c2c1OC1(CCCC1)C2
4. COc1ccc(C(C#N)Cc2ccncc2)c2c1OC1(CCCC1)C2.Cl (racemic)
5. COc1ccc(/C=C/c2c(Cl)cncc2Cl)c2c1OC1(CCCCC1)C2.CS(=O)(=O)O
6. COc1ccc(C(=O)Nc2c(Cl)cncc2Cl)c2c1OCC2CC(=O)NCc1ccc(Cl)cc1 (racemic)

Result:
1. 89
2. 68
3. 76
4. 78
5. 93
6. 85

Quick request: Enzyme Inhibitory Activity (%, 10^−6 M) for each listed item, please.
1. COc1ccc(C(=O)Nc2c(Cl)cncc2Cl)c2c1OCC2CC(=O)NCc1ccc(F)cc1 (racemic)
2. COc1ccc(C(=O)Cc2ccncc2)c2c1O[C@@H]1CCCC[C@H]21.Cl (racemic)
3. CCC1(CC)Cc2c(CCc3ccncc3)ccc(OC)c2O1.Cl
4. CCOC(=O)/C(=C/c1ccc(OC)c2c1CC(C)(C)O2)c1ccncc1

Result:
1: 85; 2: 66; 3: 67; 4: 61
